assay: Approximate solubility of Compound I-1 (amorphous) in different solvents (manual dilution, visual observation); assay type: physicochemical; details: Ethanol:H2O (1:1), ambient laboratory temperature
Residues, ends and D or L forms follow the SMILES beside them. *: point of attachment. Palmitoyl = CCCCCCCCCCCCCCCC(=O)*
VALUE_TYPE: solubility

Ask: Report solubility for CCCCCCCCCCCCCCCC(=O)N1CCC[C@H]1C(=O)N1CCC[C@H]1C(=O)NCC(=O)N[C@@H](Cc1ccc(O)cc1)C(=O)[O-].[Na+] [Compound I-1 (Amorphous)] (Palmitoyl-PPGY-OH) please.
Result: 50 to 100 mg/mL

====

assay: Approximate solubility of Compound I-1 (amorphous) in different solvents (manual dilution, visual observation); assay type: physicochemical; conditions: Acetone, ambient laboratory temperature
Residues, ends and D or L forms follow the SMILES beside them. *: point of attachment. Palmitoyl = CCCCCCCCCCCCCCCC(=O)*
VALUE_TYPE: solubility

Ask: Report solubility for CCCCCCCCCCCCCCCC(=O)N1CCC[C@H]1C(=O)N1CCC[C@H]1C(=O)NCC(=O)N[C@@H](Cc1ccc(O)cc1)C(=O)[O-].[Na+] [Compound I-1 (Amorphous)] (Palmitoyl-PPGY-OH) please.
Result: < 1000 µg/mL

====

assay: Approximate solubility of Compound I-1 (amorphous) in different solvents (manual dilution, visual observation); assay type: physicochemical; conditions: Methanol, ambient laboratory temperature
Residues, ends and D or L forms follow the SMILES beside them. *: point of attachment. Palmitoyl = CCCCCCCCCCCCCCCC(=O)*
VALUE_TYPE: solubility

Ask: Report solubility for CCCCCCCCCCCCCCCC(=O)N1CCC[C@H]1C(=O)N1CCC[C@H]1C(=O)NCC(=O)N[C@@H](Cc1ccc(O)cc1)C(=O)[O-].[Na+] [Compound I-1 (Amorphous)] (Palmitoyl-PPGY-OH) please.
Result: > 100 mg/mL

====

experiment: Approximate solubility of Compound I-1 (amorphous) in different solvents (manual dilution, visual observation); type: physicochemical; conditions: Tetrahydrofuran, ambient laboratory temperature
Residues, ends and D or L forms follow the SMILES beside them. *: point of attachment. Palmitoyl = CCCCCCCCCCCCCCCC(=O)*
VALUE_TYPE: solubility

Ask: Report solubility for CCCCCCCCCCCCCCCC(=O)N1CCC[C@H]1C(=O)N1CCC[C@H]1C(=O)NCC(=O)N[C@@H](Cc1ccc(O)cc1)C(=O)[O-].[Na+] [Compound I-1 (Amorphous)] (Palmitoyl-PPGY-OH) please.
Result: > 100 mg/mL

====

assay: Approximate solubility of Compound I-1-Acid in different solvents (manual dilution, visual observation); format: physicochemical; details: ACN—H2O (1:1); room temperature
Residues, ends and D or L forms follow the SMILES beside them. *: point of attachment. Palmitoyl = CCCCCCCCCCCCCCCC(=O)*
VALUE_TYPE: solubility

Ask: Report solubility for CCCCCCCCCCCCCCCC(=O)N1CCC[C@H]1C(=O)N1CCC[C@H]1C(=O)NCC(=O)N[C@@H](Cc1ccc(O)cc1)C(=O)O [Compound I-1-Acid] (Palmitoyl-PPGY-OH) please.
Result: < 1000 µg/mL

====

assay: Approximate solubility of Compound I-2 (amorphous) at room temperature; format: physicochemical; settings: Methanol
Residues, ends and D or L forms follow the SMILES beside them. *: point of attachment. Palmitoyl = CCCCCCCCCCCCCCCC(=O)*
VALUE_TYPE: solubility

Ask: Report solubility for CCCCCCCCCCCCCCCC(=O)N1CCC[C@H]1C(=O)N1CCC[C@H]1C(=O)NCC(=O)N[C@@H](Cc1ccc(O)cc1)C(=O)[O-].[K+] [Compound I-2 (amorphous)] (Palmitoyl-PPGY-OH) please.
Result: > 100 mg/mL

====

experiment: Solubility of amorphous, Form A and Form E of Compound I-1 in water (shaken at 25° C., HPLC); format: physicochemical; conditions: water; 25° C.
Residues, ends and D or L forms follow the SMILES beside them. *: point of attachment. Palmitoyl = CCCCCCCCCCCCCCCC(=O)*
VALUE_TYPE: solubility kinetic

Ask: Report solubility kinetic for CCCCCCCCCCCCCCCC(=O)N1CCC[C@H]1C(=O)N1CCC[C@H]1C(=O)NCC(=O)N[C@@H](Cc1ccc(O)cc1)C(=O)[O-].[Na+] [Compound I-1] (Palmitoyl-PPGY-OH) please.
Result: ~200 mg/mL

====

assay: Approximate solubility of Compound I-1 (amorphous) in different solvents (manual dilution, visual observation); format: physicochemical; conditions: Cyclohexane, ambient laboratory temperature
Residues, ends and D or L forms follow the SMILES beside them. *: point of attachment. Palmitoyl = CCCCCCCCCCCCCCCC(=O)*
VALUE_TYPE: solubility

Ask: Report solubility for CCCCCCCCCCCCCCCC(=O)N1CCC[C@H]1C(=O)N1CCC[C@H]1C(=O)NCC(=O)N[C@@H](Cc1ccc(O)cc1)C(=O)[O-].[Na+] [Compound I-1 (Amorphous)] (Palmitoyl-PPGY-OH) please.
Result: < 1000 µg/mL

====

assay: Aqueous solubility of Compound I-1 in the presence of excipients; assay type: physicochemical; settings: water with TWEEN 80 1% (w/v), 25° C., HPLC
Residues, ends and D or L forms follow the SMILES beside them. *: point of attachment. Palmitoyl = CCCCCCCCCCCCCCCC(=O)*
VALUE_TYPE: solubility at 24 h (mg/mL)
Write the value in mg/mL as a bare number.

Ask: Report solubility at 24 h for CCCCCCCCCCCCCCCC(=O)N1CCC[C@H]1C(=O)N1CCC[C@H]1C(=O)NCC(=O)N[C@@H](Cc1ccc(O)cc1)C(=O)[O-].[Na+] [Compound I-1] (Palmitoyl-PPGY-OH) please.
Result: 215

====

experiment: Water solubility of Compound I-1-Acid (further investigation); format: physicochemical
Residues, ends and D or L forms follow the SMILES beside them. *: point of attachment. Palmitoyl = CCCCCCCCCCCCCCCC(=O)*
VALUE_TYPE: solubility

Ask: Report solubility for CCCCCCCCCCCCCCCC(=O)N1CCC[C@H]1C(=O)N1CCC[C@H]1C(=O)NCC(=O)N[C@@H](Cc1ccc(O)cc1)C(=O)O [Compound I-1-Acid] (Palmitoyl-PPGY-OH) please.
Result: < 2 µg/mL

====

assay: Approximate solubility of Compound I-1 (amorphous) in different solvents (manual dilution, visual observation); assay type: physicochemical; settings: Acetone:H2O (1:2), ambient laboratory temperature
Residues, ends and D or L forms follow the SMILES beside them. *: point of attachment. Palmitoyl = CCCCCCCCCCCCCCCC(=O)*
VALUE_TYPE: solubility

Ask: Report solubility for CCCCCCCCCCCCCCCC(=O)N1CCC[C@H]1C(=O)N1CCC[C@H]1C(=O)NCC(=O)N[C@@H](Cc1ccc(O)cc1)C(=O)[O-].[Na+] [Compound I-1 (Amorphous)] (Palmitoyl-PPGY-OH) please.
Result: 50 to 100 mg/mL

====

assay: Approximate solubility of Compound I-1-Acid in different solvents (manual dilution, visual observation); type: physicochemical; conditions: Toluene; room temperature
Residues, ends and D or L forms follow the SMILES beside them. *: point of attachment. Palmitoyl = CCCCCCCCCCCCCCCC(=O)*
VALUE_TYPE: solubility

Ask: Report solubility for CCCCCCCCCCCCCCCC(=O)N1CCC[C@H]1C(=O)N1CCC[C@H]1C(=O)NCC(=O)N[C@@H](Cc1ccc(O)cc1)C(=O)O [Compound I-1-Acid] (Palmitoyl-PPGY-OH) please.
Result: < 1000 µg/mL

====

experiment: Approximate solubility of Compound I-1-Acid in different solvents (manual dilution, visual observation); format: physicochemical; conditions: Isopropyl acetate; room temperature
Residues, ends and D or L forms follow the SMILES beside them. *: point of attachment. Palmitoyl = CCCCCCCCCCCCCCCC(=O)*
VALUE_TYPE: solubility

Ask: Report solubility for CCCCCCCCCCCCCCCC(=O)N1CCC[C@H]1C(=O)N1CCC[C@H]1C(=O)NCC(=O)N[C@@H](Cc1ccc(O)cc1)C(=O)O [Compound I-1-Acid] (Palmitoyl-PPGY-OH) please.
Result: < 1000 µg/mL

====

assay: Approximate solubility of Compound I-1 (amorphous) in different solvents (manual dilution, visual observation); format: physicochemical; settings: Methyl ethyl ketone, ambient laboratory temperature
Residues, ends and D or L forms follow the SMILES beside them. *: point of attachment. Palmitoyl = CCCCCCCCCCCCCCCC(=O)*
VALUE_TYPE: solubility

Ask: Report solubility for CCCCCCCCCCCCCCCC(=O)N1CCC[C@H]1C(=O)N1CCC[C@H]1C(=O)NCC(=O)N[C@@H](Cc1ccc(O)cc1)C(=O)[O-].[Na+] [Compound I-1 (Amorphous)] (Palmitoyl-PPGY-OH) please.
Result: 3300 to 5000 µg/mL

====

assay: Approximate solubility of Compound I-1-Acid in different solvents (manual dilution, visual observation); type: physicochemical; details: Ethanol; room temperature
Residues, ends and D or L forms follow the SMILES beside them. *: point of attachment. Palmitoyl = CCCCCCCCCCCCCCCC(=O)*
VALUE_TYPE: solubility

Ask: Report solubility for CCCCCCCCCCCCCCCC(=O)N1CCC[C@H]1C(=O)N1CCC[C@H]1C(=O)NCC(=O)N[C@@H](Cc1ccc(O)cc1)C(=O)O [Compound I-1-Acid] (Palmitoyl-PPGY-OH) please.
Result: < 1000 µg/mL

Origin of the recorded values: patent US11739120B2
